# Test system: Leishmania donovani
# test: Leishmania intramacrophage assay
# Format: functional, organism-based
# Parameters: scale not given: in the data most compounds retested in dose-response had high values
# settings: 30.3 µM; […]
In all, about 69,000 compounds went through this assay and about 1,000 (1.4%) showed an effect of 50% or more. Only a selection was taken, and strong results are over-represented in it overall.
measured quantity: Percent Effect (%)
Note: unit % is implicit; provide only the numeric part.

For orientation, consider the following solved cases.
Cc1ccc(N(Cc2ccco2)C(=O)CC2=NN(C)C(=O)C2)cc1 = 6.943
COc1cc(N2CC[C@H](O)[C@@H]2Cc2ccccc2)ncn1 = 33.09
Cl.O=C1CC2(CCNCC2)C(=O)N1Cc1ccc(F)cc1 = 26.47
Cc1nn(C)c(C)c1S(=O)(=O)N(C)Cc1nn(C)c(Cl)c1Cl = 1.519
NC(=O)c1ccc(CN2C(=O)C3(CCNCC3)Nc3ccccc32)cc1 = 29.82

Data request, read-out Percent Effect, for Cc1ccc(-c2nc(C(=O)N(C)CC(=O)N(C)C)cs2)c(C)c1
-31.91

For COC[C@@]12CCC[C@@H]1CN(C(=O)COC1CCCC1)C2 , what is its reported Percent Effect?
36.81

For CNS(=O)(=O)c1cccc(C(C)NCc2ccc(F)c(F)c2)c1 (stereo not given) , what is its reported Percent Effect?
11.11

* * *

# System: Leishmania donovani
# test: Leishmania intramacrophage assay
# Format: functional, organism-based
# Parameters: scale not given: in the data most compounds retested in dose-response had high values
# settings: 30.3 µM; […]
Out of some 69,000 compounds screened, about 1,000 (1.4%) showed an effect of 50% or more. Shown is part of a subset that was picked to be rich in strong results.
measured quantity: Percent Effect (%)
Your answer is read as %, so omit the unit and give the number.

// query Percent Effect value for entry Cc1nc(CN2C(=O)CCC23CCN(Cc2cccn2C)CC3)cs1.O=C(O)C(F)(F)F.O=C(O)C(F)(F)F
2.496

* * *

Below, each of the compounds is paired with its reported Percent Effect value.
# Test system: Leishmania donovani
# test: Leishmania intramacrophage assay
# Format: functional, organism-based
# Parameters: scale not given: in the data most compounds retested in dose-response had high values
# settings: 30.3 µM; […]
In all, about 69,000 compounds went through this assay and about 1,000 (1.4%) showed an effect of 50% or more. The sample holds strong results, similar compounds and a random draw of the others, so the mix is not that of the screen.
Enter your answer as a number in %; do not include the unit.

Observe how each entry below is paired with its result.
CCc1nc(NCCCn2cccn2)c2c(n1)c(C)nn2CC = -48.93
N#Cc1ccc(NC2CCN(Cc3ccccn3)CC2)c(F)c1 = -12.41
CCn1nc(C)c2nc(C)nc(NCCCn3cccn3)c21 = -10.11
CCn1nc(C)c2nc(C)nc(NCCc3ccccc3)c21 = 36.57
Cc1nc(N2CCCC2)nc2c1CCN(C(=O)N1CCCC1)CC2 = -2.559

Moving on to the next compound.
Need Percent Effect, item CCCc1nc(NCCCn2cccn2)c2c(n1)c(C)nn2CC
56.39

* * *

# Test system: Leishmania donovani
# test: Leishmania intramacrophage assay
# Type: functional, organism-based
# Design: scale not given: in the data most compounds retested in dose-response had high values
# settings: 30 µM; 30.03 µM
In all, about 69,000 compounds went through this assay and about 1,000 (1.4%) showed an effect of 50% or more. The full list was thinned out, with strong results kept by preference.
measured quantity: Percent Effect (%)
Expressed in %, but write only the number.

Example molecules with recorded Percent Effect:
CN(C)CCOCC1CN(Cc2ccsc2)Cc2ccnn2C1.O=C(O)C(F)(F)F.O=C(O)C(F)(F)F.O=C(O)C(F)(F)F (configuration not stated) = 9.716
O=C(NCCCN1CCCCC1)c1ccc(-n2ccc3ccccc32)s1 = 94.7
CCOc1ccccc1C(CC(=O)Nc1ccc(C)cn1)NC(C)=O (configuration not stated) = 34.79
Cc1nn(C)c2cn(C(C)C(=O)NCc3cccnc3)nc12 (configuration not stated) = 8.191
CCc1nccn1C1CCCN(C(=O)c2cc3nc(C)ccc3o2)C1 (configuration not stated) = 3.953
CC(C)(C)c1cn2nc(N3CCC[C@@H]3CO)sc2n1 = 20.83
Cc1nc(CN2CCCC(CCc3c(F)cccc3F)C2)c[nH]1 (configuration not stated) = 47.92
CN(C)CCO[C@@H]1CC[C@H]2[C@H]1OCCN2C(=O)COc1ccccc1.O=C(O)C(F)(F)F = 28.35
CC(C)c1nnc2n1CCN(C(=O)CN1Cc3ccccc3C1=O)C2 = -6.489
Cc1nc(CN2CCCC(CCc3ccc(F)cc3F)C2)c[nH]1 (configuration not stated) = 30.76

Form field: reported Percent Effect of CCN(CC)CCNC(=O)c1cnc(C(C)(C)C)s1
10.1

Would you mind telling me what Percent Effect value was observed for COc1c(C2CCCN2C(=O)c2c[nH]c3ncccc23)c(C)nn1C (configuration not stated) ?
-19.02

// query Percent Effect value for entry NCC1CN(c2nc(-c3ccccc3)nc3c2CCNCC3)CCO1 (configuration not stated)
6.18

What value of Percent Effect has been recorded for this entry: CCN1CC2(CCNCC2)COc2ccccc2S1(=O)=O.O=C(O)C(F)(F)F
13.53

Give its Percent Effect value. Item: COc1ccc(C)cc1NC(=O)Nc1cnc(N2CCN(C)CC2)nc1
50.02

Record request: Percent Effect value, item CS(=O)(=O)Cc1cccc(C(=O)N2CCCC(n3cccn3)C2)c1 (configuration not stated)
-5.751

// returns reported Percent Effect for input CNC(=O)[C@@]12CCO[C@@H]1CCN(S(=O)(=O)c1cccnc1)C2.O=C(O)C(F)(F)F
-13.7

Item under review: O=c1[nH]c2c(c(=O)n1C1CCCCC1)CCC2Nc1ccccc1Cl (configuration not stated) . Reported Percent Effect?
19.4

State the recorded Percent Effect for this entry: CNC(=O)[C@H]1CCS(=O)(=O)[C@@H]2CN(Cc3ccc(OC)cc3)C[C@H]12
7.266

I am curious: what Percent Effect value has been reported for COCCC(=O)N1CCC2(COCc3c(C)nc(NCC4CC4)nc32)C1 (configuration not stated) ?
4.108

Form field: reported Percent Effect of CC(CNCc1ccncc1)Oc1ccccn1.Cl (configuration not stated)
6.303

Which Percent Effect reading was recorded for the molecule CCOc1ccc(Cl)cc1CNCCCn1ccnc1 ?
1.663

* * *

# System: Leishmania donovani
# test: Leishmania intramacrophage assay
# Type: functional, organism-based
# Set-up: scale not given: in the data most compounds retested in dose-response had high values
# settings: 30 µM
Screen size: about 69,000 compounds; about 1,000 (1.4%) showed an effect of 50% or more. The list comes from a sample in which strong results are over-represented; it also holds close analogues and randomly drawn compounds.
measured quantity: Percent Effect (%)
Please respond with the number in % and leave the unit unwritten.

Previously resolved entries follow.
CCC(NC(=O)C1CC1)c1ccccc1OCC(=O)N1CCCC1 (centres undefined) = -1.247
COc1c(CNCc2ccc(Cn3ccnc3)cc2)c(C)nn1C = 38.9
O=C(NCC(=O)N1CCCc2ccccc21)c1c(O)cc(F)cc1F = 16.08
CC(C)(C)c1n[nH]c(C2CN(Cc3nnc(C4CC4)o3)CCO2)n1 (centres undefined) = 6.806
Cc1ccc(CNC2CCCN(Cc3noc(C4CC4)n3)C2)s1 (centres undefined) = 1.737
O=C(c1ccc2[nH]c(=O)[nH]c2c1)N1CCC(Nc2cccnn2)CC1 = -0.4678
COCCN1CCN(C(C)c2nc(C3CC3)no2)CC1 (centres undefined) = -7.952
COC(=O)c1cccn1C1CCN(Cc2cccnc2)CC1 = 38.52
CNc1cc2c(nn1)CCN(C(=O)c1coc(Br)c1)C2 = -2.691
Cc1noc(C)c1C(=O)NCc1ccc(N2CCCCCC2)nc1 = 36.14

Which Percent Effect is reported for this compound? COC(=O)Nc1ccc(CNc2cncc(-n3cccn3)n2)cc1
52.92

Request the reported Percent Effect associated with CC(C)c1cc(NC(=O)c2cccnc2)[nH]n1
2.786

I have this compound here, c1ccc2oc(CCCN3CCCC(Cn4cncn4)C3)nc2c1 (centres undefined) , and I need its recorded Percent Effect.
8.044

Which value of Percent Effect has been reported for CCn1cc(NC(=O)NCC(c2ccsc2)N(C)C)cn1 (centres undefined) in the records?
19.68

// Percent Effect lookup, key: O=C(CCc1ccsc1)N1CCCC(n2cncn2)C1 (centres undefined)
18.97

# get_value(readout='Percent Effect', item= Clc1cccc(OCCCN2CCOC(Cn3cncn3)C2)c1 (centres undefined) )
18.78

Entry CCOc1ccc(Cl)c(C(=O)N2CCCN(CC(N)=O)CC2)n1 : reported Percent Effect = ?
-7.749

GET /values?readout=Percent Effect&item= COc1c(CNCc2cccc(Cn3ccnc3C)c2)c(C)nn1C.Cl
52.6

For the compound Cc1nc(CN(C)C2CCN(Cc3cccc4c3OCCO4)C2)no1 (centres undefined) , what Percent Effect is on record?
6.673

Name the reported Percent Effect value associated with the compound COc1c(CNCc2cccc(Cn3cccn3)c2)c(C)nn1C
41.23

Looking for the measured Percent Effect of COc1ccc(OC2CCN(C(=O)c3ccc(C)[nH]c3=O)CC2)cc1 , can you help?
26.55

Bench note: what Percent Effect did COCc1ccccc1CNCc1c(C(C)C)nn(C)c1N(C)C show?
21.29

# input compound: c1ccc(OCCCN2CCOC(CNc3cccnn3)C2)cc1 (centres undefined) ; wanted: its Percent Effect
30.1

Look up Percent Effect for this compound: CCOc1ncccc1CNC(=O)Nc1ccccc1
-12.58

Entry COC(=O)C(c1ccccc1)N(C)C(=O)c1ccnc(C)n1 (centres undefined) has what Percent Effect?
22.67

For the compound O=C1NCCN1C1CCN(Cc2nc(-c3ccccc3)no2)CC1 , what Percent Effect is on record?
51.92

So what does the record say about Percent Effect for O=C(NCCC(=O)N1CCCc2ccccc21)c1c(F)cccc1F ?
15.29

So what does the record say about Percent Effect for CCc1cnc(CN(C(C)=O)C2CCN(CC(=O)N3CCCC3)C2)o1 (centres undefined) ?
28.38

Field request: Percent Effect | item: CCc1csc(C2CCCN(C(=O)c3ccco3)C2)n1 (centres undefined)
-22.84

Which Percent Effect is listed for Cc1cc(NC(=O)NCC2COc3ccccc3C2)no1 (centres undefined) ?
-28.91

Please give the measured Percent Effect for this compound: Cc1ncccc1CNC1CCCN(Cc2noc(C3CC3)n2)C1 (centres undefined)
51.55

Which Percent Effect is listed for COc1c(CNCc2ccccc2Cn2ccnc2)c(C)nn1C ?
42.31
